Every entry's value here was drawn from ChEMBL document CHEMBL1149610.

test: Selectivity index, ratio of IC50 for rat L6 cells to IC50 for Trypanosoma brucei rhodesiense; assay type: functional
# Ratio IC50 per entry
// print number alone

The examples below pair each entry with its known result.
[
  {
    "molecule": "O=C(CN1CCCC1)OC1CC2(N3CCCC3)CC(c3ccccc3)C1C(c1ccccc1)C2 (racemic)",
    "reportedMeasurement": 186.7
  },
  {
    "molecule": "CC(C)(C)C(=O)OC1CC2(N3CCCCC3)CC(c3ccccc3)C1C(c1ccccc1)C2 (racemic)",
    "reportedMeasurement": 4.46
  },
  {
    "molecule": "CN(C)C12CC(OC(=O)CN3CCCC3)C(C(c3ccccc3)C1)C(c1ccccc1)C2 (racemic)",
    "reportedMeasurement": 155.5
  },
  {
    "molecule": "CCN(CC)CC(=O)OC1CC2(N3CCCC3)CC(c3ccccc3)C1C(c1ccccc1)C2 (racemic)",
    "reportedMeasurement": 68.06
  },
  {
    "molecule": "CN(C)C12CC(OC(=O)CN3CCCCC3)C(C(c3ccccc3)C1)C(c1ccccc1)C2 (racemic)",
    "reportedMeasurement": 14.7
  },
  {
    "molecule": "CCN(CC)CC(=O)OC1CC2(N(C)C)CC(c3ccccc3)C1C(c1ccccc1)C2 (racemic)",
    "reportedMeasurement": 49.41
  }
]

Challenge: Which Ratio IC50 reading was recorded for the molecule CN(C)C12CC(OC(=O)c3ccc4c(c3)OCO4)C(C(c3ccccc3)C1)C(c1ccccc1)C2 (racemic) ?
Response given: 5.43

Challenge: Which Ratio IC50 reading was recorded for the molecule CN(C)C12CC(OC(=O)C(C)(C)C)C(C(c3ccccc3)C1)C(c1ccccc1)C2 (racemic) ?
Response given: 8.16

Challenge: Which Ratio IC50 reading was recorded for the molecule O=C(/C=C/c1ccccc1)OC1CC2(N3CCCC3)CC(c3ccccc3)C1C(c1ccccc1)C2 (racemic) ?
Response given: 3.37

Challenge: Which Ratio IC50 reading was recorded for the molecule O=C(CN1CCCC1)OC1CC2(N3CCCCC3)CC(c3ccccc3)C1C(c1ccccc1)C2 (racemic) ?
Response given: 51.19

Challenge: Which Ratio IC50 reading was recorded for the molecule CN(C)C12CC(O)C(C(c3ccccc3)C1)C(c1ccccc1)C2 (racemic) ?
Response given: 44.92

Challenge: Which Ratio IC50 reading was recorded for the molecule O=C(OC1CC2(N3CCCC3)CC(c3ccccc3)C1C(c1ccccc1)C2)c1ccc2c(c1)OCO2 (racemic) ?
Response given: 6.89

Challenge: Which Ratio IC50 reading was recorded for the molecule O=C(OC1CC2(N3CCCCC3)CC(c3ccccc3)C1C(c1ccccc1)C2)c1ccc2c(c1)OCO2 (racemic) ?
Response given: 5.07

Challenge: Which Ratio IC50 reading was recorded for the molecule O=C(CN1CCCCC1)OC1CC2(N3CCCCC3)CC(c3ccccc3)C1C(c1ccccc1)C2 (racemic) ?
Response given: 69.41

Challenge: Which Ratio IC50 reading was recorded for the molecule CCN(CC)CC(=O)OC1CC2(N3CCCCC3)CC(c3ccccc3)C1C(c1ccccc1)C2 (racemic) ?
Response given: 42.71

Challenge: Which Ratio IC50 reading was recorded for the molecule O=C(CN1CCCCC1)OC1CC2(N3CCCC3)CC(c3ccccc3)C1C(c1ccccc1)C2 (racemic) ?
Response given: 38.43

Challenge: Which Ratio IC50 reading was recorded for the molecule O=C(/C=C/c1ccccc1)OC1CC2(N3CCCCC3)CC(c3ccccc3)C1C(c1ccccc1)C2 (racemic) ?
Response given: 7.43

Challenge: Which Ratio IC50 reading was recorded for the molecule CC(C)(C)C(=O)OC1CC2(N3CCCC3)CC(c3ccccc3)C1C(c1ccccc1)C2 (racemic) ?
Response given: 5.52

Challenge: Which Ratio IC50 reading was recorded for the molecule CN(C)C12CC(OC(=O)/C=C/c3ccccc3)C(C(c3ccccc3)C1)C(c1ccccc1)C2 (racemic) ?
Response given: 4.6
